ASSAY TARGET: T1, human transferrin receptor (recombinant, for surface plasmon resonance) (human, UniProt P02786 89-760)
T1 construct: also called huTfR; human transferrin receptor-biotinylated
T1 sequence (P02786 89-760 limits assumed): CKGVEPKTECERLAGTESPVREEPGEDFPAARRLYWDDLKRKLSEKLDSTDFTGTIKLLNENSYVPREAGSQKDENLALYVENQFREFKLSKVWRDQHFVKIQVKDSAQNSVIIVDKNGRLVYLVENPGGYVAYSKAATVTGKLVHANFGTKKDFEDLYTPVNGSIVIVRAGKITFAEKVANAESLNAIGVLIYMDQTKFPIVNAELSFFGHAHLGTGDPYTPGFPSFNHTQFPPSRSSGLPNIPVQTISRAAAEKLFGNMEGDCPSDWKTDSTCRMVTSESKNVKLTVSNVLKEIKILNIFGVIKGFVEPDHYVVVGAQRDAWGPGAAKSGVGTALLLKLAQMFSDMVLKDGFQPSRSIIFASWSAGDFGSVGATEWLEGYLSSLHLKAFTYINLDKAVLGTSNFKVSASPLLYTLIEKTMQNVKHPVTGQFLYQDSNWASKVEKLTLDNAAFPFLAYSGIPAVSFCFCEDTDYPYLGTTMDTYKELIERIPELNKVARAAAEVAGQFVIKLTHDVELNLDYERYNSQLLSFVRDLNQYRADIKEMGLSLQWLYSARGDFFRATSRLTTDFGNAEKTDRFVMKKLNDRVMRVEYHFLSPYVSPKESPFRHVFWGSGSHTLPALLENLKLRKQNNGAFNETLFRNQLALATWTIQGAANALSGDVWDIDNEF
TEST: SPR 25C
PROPERTY: koff (s⁻¹)

2/99 VH5/VL10 (antibody, V domains shown) VH: QSMEETGGGLIQPGGSLRLSCAASGFSLSSYAMSWVRQAPGKGLEWVGYIWSGGSTDYADSVKGRFTISRDNSKNTLYLQMNSLRAEDTAVYYCARRYGTSYPDYGDANGFDPWGPGTLVTVSS VL: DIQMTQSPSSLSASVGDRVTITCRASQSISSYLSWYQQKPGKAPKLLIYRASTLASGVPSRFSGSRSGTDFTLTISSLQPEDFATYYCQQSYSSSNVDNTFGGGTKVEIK | 0.00653
2/99 VH15/VL8 (antibody, V domains shown) VH: QQLQESGPGLVKPSETLSLTCTVSGFSLSSYAMSWVRQPPGKGLEWIGYIWSGGSTDYNPSLKSRVTISVDTSKNQVSLKLSSVTAADTAVYYCARRYGTSYPDYGDANGFDPWGQGTLVTVSS VL: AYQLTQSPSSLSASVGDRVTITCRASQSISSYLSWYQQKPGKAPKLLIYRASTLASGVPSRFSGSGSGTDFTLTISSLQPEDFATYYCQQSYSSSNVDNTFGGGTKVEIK | 0.00209
2/99 VH22/VL15 (antibody, V domains shown) VH: QSMQESGPGLVKPSQTLSLTCTVSGFSLSSYAMSWVRQHPGKGLEWIGYIWSGGSTDYASWAKSRVTISVDTSKNQVSLKLSSVTAADTAVYYCARRYGTSYPDYGDANGFDPWGQGTLVTVSS VL: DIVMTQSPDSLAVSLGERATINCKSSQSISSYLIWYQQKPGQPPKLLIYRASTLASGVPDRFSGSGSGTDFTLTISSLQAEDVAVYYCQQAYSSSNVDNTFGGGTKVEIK | 0.00179
2/99 VH21/VL5 (antibody, V domains shown) VH: QSMQESGPGLVKPSQTLSLTCTVSGFSLSSYAMSWIRQHPGKGLEWIGYIWSGGSTDYASWAKSRVTISVDTSKNQVSLKLSSVTAADTAVYYCARRYGTSYPDYGDANGFDPWGQGTLVTVSS VL: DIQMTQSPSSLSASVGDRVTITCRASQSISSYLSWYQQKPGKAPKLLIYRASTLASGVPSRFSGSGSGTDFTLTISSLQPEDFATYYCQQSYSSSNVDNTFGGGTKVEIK | 0.00137
2/99 VH13/VL6 (antibody, V domains shown) VH: QVQLQESGPGLVKPSETLSLTCTVSGFSLSSYAMSWIRQPPGKGLEWIGYIWSGGSTDYNPSLKSRVTISVDTSKNQVSLKLSSVTAADTAVYYCARRYGTSYPDYGDANGFDPWGQGTLVTVSS VL: AIQLTQSPSSLSASVGDRVTITCRASQSISSYLSWYQQKPGKAPKLLIYRASTLASGVPSRFSGSGSGTDFTLTISSLQPEDFATYYCQQSYSSSNVDNTFGGGTKVEIK | 0.00365
